assay: blockers of CRF-binding protein–CRF-R2 complex – cell-based, uHTS hits, 384-well, dose response (AID 651639); assay type: functional, Homo sapiens; details: read-out: IC50_Mean
Activity calls are given as the source filed them. No stated cut-off is given here; in the data, actives have a measured value and inactives only a lower limit.
Allowed answers: active, inactive

Answered examples (3):
COMPOUND: Cc1ccccc1-c1cc2nc(-c3ccc([N+](=O)[O-])cc3)cc(O)n2n1
CLASS_LABEL: active
--
COMPOUND: Cc1nn(S(=O)(=O)c2cccs2)c(C)c1Sc1ccc([N+](=O)[O-])cc1
CLASS_LABEL: active
--
COMPOUND: CC1=CC(C)(C)N2C(=O)C3(C(C#N)=C(N)Oc4cc(O)ccc43)c3c(C)c(C)cc1c32 (centres undefined)
CLASS_LABEL: active

Now consider a different compound.
Entry "Cc1ccc(N2C(=O)/C(=C\Nc3ccccc3-c3nnc(S)nc3O)c3ccccc3C2=O)c(C)c1" : call = ?
inactive
